Target: human ACVR2A (human, UniProt P27037 20-135, limits assumed); note: test concentration or dose not given here
Sequence (P27037 20-135 limits assumed): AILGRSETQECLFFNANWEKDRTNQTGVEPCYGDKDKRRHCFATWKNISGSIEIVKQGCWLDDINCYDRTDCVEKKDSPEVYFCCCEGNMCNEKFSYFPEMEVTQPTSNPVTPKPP
Assay: ELISA
ENDPOINT NAME: optical density
Answer with the figure and its unit, nothing else.

These recorded examples may help you get a feel for the data.
INSERT INTO assay_data (binder, experimental_value) VALUES
  ('374_E02 (antibody, V domains shown, VH/VL only) VH: EVQLLESGGGLVQPGGSLRLSCAASGFTFSSYSMNWVRQAPGKGLEWVSGINYNGGYTSYADSVKGRFTISRDNSKNTLYLQMNSLRAEDTAVYYCARSANWHDTALDYWGQGTLVTVSS VL: DIQMTQSPSSLSASVGDRVTITCRASQSILSYLNWYQQKPGKAPKLLIYAATSLASGVPSRFSGSGSGTDFTLTISSLQPEDFATYYCQQSYDLPLTFGGGTKVEIK', '3.23 OD'),
  ('374_G04 (antibody, V domains shown, VH/VL only) VH: EVQLLESGGGLVQPGGSLRLSCAASGFTFSSYSMNWVRQAPGKGLEWVAGINYNGGYTGYADSVKGRFTISRDNSKNTLYLQMNSLRAEDTAVYYCARSANWHDTALDYWGQGTLVTVSS VL: DIQMTQSPSSLSASVGDRVTITCRASQSILTYLNWYQQKPGKAPKLVIYAATSLASGVPSRFSGSGSGTDFTLTISSLQPEDFATYYCQQSYDNPLTFGGGTKVEIK', '2.1 OD');

Give measured optical density for every item shown.
1. 373_H10 (antibody, V domains shown, VH/VL only) VH: EVQLLESGGGLVQPGGSLRLSCAASGFTFSSYSMNWVRQAPGKGLEWVAGINYNGGYTGYADSVKGRFTISRDNSKNTLYLQMNSLRAEDTAVYYCARSATWHDTHLDYWGQGTLVTVSS VL: DIQMTQSPSSLSASVGDRVTITCRASQSILSYVNWYQQKPGKAPKLLIYAATSRASGVPSRFSGSGSGTDFTLTISSLQPEDFATYYCQQSYSLPLTFGGGTKVEIK
2. 369_D11 (antibody, V domains shown, VH/VL only) VH: EVQLLESGGGLVQPGGSLRLSCAASGFTFSSYGMHWVRQAPGKGLEWVASINYNGGYTSYADSVKGRFTISRDNSKNTLYLQMNSLRAEDTAVYYCARSATWHDTHLDYWGQGTLVTVSS VL: DIQMTQSPSSLSASVGDRVTITCRASQSILTYLNWYQQKPGKAPKLVIYAATSLASGVPSRFSGSGSGTDFTLTISSLQPEDFATYYCQQSDELPLTFGGGTKVEIK
3. 370_C04 (antibody, V domains shown, VH/VL only) VH: EVQLLESGGGLVQPGGSLRLSCAASGFTFSSYGMNWVRQAPGKGLEWVASINYNSGYTSYADSVKGRFTISRDNSKNTLYLQMNSLRAEDTAVYYCARSATWHDTHLDYWGQGTLVTVSS VL: DIQMTQSPSSLSASVGDRVTITCRASQSILSYLNWYQQKPGKAPKLLIYAASSLQSGVPSRFSGSGSGTDFTLTISSLQPEDFATYYCQQSYENPLTFGGGTKVEIK
4. 365_C09 (antibody, V domains shown, VH/VL only) VH: EVQLLESGGGLVQPGGSLRLSCAASGFTFSDYGMNWVRQAPGKGLEWVSGINYNGGYKSYADSVKGRFTISRDNSKNTLYLQMNSLRAEDTAVYYCARSATWHDTHLDYWGQGTLVTVSS VL: DIQMTQSPSSLSASVGDRVTITCRASQSIVSYVNWYQQKPGKAPKLLIYAATSRASGVPSRFSGSGSGTDFTLTISSLQPEDFATYYCQQSYDTPLTFGGGTKVEIK
5. 374_F04 (antibody, V domains shown, VH/VL only) VH: EVQLLESGGGLVQPGGSLRLSCAASGFTFSSYGMNWVRQAPGKGLEWVSGINYNSGYKSYADSVKGRFTISRDNSKNTLYLQMNSLRAEDTAVYYCARSANWHDTALDYWGQGTLVTVSS VL: DIQMTQSPSSLSASVGDRVTITCRASQSILTYVNWYQQKPGKAPKLLIYAATSRASGVPSRFSGSGSGTDFTLTISSLQPEDFATYYCQQSYNSPLTFGGGTKVEIK

1: 3.24 OD; 2: 2.99 OD; 3: 2.32 OD; 4: 2.05 OD; 5: 3.58 OD
